TESTED_SYSTEM: ATM (Homo sapiens (Human))
Sequence (Q13315 whole entry): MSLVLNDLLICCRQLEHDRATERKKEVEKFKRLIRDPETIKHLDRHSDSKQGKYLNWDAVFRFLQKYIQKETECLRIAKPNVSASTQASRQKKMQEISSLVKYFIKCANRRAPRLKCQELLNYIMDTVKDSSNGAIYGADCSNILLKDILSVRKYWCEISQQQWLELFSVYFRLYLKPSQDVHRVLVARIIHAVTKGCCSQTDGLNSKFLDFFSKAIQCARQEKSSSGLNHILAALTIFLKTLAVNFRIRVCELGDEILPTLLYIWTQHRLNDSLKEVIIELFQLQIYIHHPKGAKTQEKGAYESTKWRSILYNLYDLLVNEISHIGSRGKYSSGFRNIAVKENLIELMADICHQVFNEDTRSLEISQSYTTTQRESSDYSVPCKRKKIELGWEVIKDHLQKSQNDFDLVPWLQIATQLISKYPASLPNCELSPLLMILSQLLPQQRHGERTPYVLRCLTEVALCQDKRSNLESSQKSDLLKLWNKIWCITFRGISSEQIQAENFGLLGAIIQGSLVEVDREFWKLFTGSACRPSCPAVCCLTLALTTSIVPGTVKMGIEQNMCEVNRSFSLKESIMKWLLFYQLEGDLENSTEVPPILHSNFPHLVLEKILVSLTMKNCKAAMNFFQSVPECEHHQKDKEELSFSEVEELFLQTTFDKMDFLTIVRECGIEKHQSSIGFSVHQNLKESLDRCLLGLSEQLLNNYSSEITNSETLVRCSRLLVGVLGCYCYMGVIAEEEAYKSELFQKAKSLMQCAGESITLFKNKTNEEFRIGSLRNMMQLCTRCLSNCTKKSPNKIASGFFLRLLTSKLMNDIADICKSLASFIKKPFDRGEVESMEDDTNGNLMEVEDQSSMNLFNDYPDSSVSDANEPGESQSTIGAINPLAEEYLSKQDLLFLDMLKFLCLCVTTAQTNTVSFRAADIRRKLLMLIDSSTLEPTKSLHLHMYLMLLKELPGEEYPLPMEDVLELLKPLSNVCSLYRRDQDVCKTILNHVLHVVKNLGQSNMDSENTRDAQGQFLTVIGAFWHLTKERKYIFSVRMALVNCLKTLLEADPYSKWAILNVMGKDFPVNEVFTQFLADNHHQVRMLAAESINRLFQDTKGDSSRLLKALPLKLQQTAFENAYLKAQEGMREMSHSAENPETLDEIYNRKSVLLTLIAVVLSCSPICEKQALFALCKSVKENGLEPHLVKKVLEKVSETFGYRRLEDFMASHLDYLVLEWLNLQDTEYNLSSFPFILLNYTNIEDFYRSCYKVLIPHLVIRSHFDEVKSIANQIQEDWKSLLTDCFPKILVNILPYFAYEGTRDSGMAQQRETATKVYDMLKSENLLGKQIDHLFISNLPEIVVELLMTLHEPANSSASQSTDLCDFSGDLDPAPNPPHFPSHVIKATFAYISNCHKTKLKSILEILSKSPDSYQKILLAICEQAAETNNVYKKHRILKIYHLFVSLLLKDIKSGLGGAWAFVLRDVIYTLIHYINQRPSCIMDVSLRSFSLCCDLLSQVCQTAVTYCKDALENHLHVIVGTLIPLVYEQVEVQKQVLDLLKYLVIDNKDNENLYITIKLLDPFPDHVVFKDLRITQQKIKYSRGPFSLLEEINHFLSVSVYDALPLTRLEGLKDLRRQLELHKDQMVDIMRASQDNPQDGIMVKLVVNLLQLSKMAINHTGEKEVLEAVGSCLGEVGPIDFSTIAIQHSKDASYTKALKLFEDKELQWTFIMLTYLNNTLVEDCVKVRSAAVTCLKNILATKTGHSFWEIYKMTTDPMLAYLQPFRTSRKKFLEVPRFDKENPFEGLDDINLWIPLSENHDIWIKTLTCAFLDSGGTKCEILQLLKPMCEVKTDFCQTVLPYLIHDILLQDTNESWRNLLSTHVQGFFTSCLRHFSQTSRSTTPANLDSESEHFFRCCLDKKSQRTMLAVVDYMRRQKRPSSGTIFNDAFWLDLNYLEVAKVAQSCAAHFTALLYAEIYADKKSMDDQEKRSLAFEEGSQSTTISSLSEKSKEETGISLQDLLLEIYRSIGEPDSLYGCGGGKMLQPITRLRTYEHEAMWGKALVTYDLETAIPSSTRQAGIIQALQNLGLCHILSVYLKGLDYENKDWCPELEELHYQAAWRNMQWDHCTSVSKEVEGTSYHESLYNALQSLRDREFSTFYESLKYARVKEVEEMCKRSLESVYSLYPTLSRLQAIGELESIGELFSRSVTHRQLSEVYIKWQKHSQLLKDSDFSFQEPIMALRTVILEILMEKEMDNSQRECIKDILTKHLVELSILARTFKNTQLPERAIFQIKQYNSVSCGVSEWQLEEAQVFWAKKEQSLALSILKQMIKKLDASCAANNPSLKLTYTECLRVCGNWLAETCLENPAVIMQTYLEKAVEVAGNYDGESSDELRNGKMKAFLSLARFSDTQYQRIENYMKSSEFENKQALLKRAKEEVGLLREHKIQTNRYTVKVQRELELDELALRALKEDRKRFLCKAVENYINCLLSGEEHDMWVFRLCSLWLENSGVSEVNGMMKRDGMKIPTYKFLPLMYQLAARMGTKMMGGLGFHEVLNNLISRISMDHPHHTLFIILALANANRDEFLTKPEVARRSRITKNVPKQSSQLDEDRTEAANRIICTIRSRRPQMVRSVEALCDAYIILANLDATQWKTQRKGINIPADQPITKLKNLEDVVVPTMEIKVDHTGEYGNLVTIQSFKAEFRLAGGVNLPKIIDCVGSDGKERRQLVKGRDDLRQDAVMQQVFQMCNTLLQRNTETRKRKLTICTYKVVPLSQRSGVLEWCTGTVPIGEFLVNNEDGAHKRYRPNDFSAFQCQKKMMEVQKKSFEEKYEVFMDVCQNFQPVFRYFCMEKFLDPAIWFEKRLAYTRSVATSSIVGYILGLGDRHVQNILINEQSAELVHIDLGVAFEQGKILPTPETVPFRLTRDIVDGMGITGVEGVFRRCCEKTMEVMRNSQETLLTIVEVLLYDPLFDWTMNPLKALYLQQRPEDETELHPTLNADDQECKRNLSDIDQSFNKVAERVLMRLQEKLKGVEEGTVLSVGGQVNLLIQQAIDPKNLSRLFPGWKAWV
PROTOCOL_TEXT: ATM in Cell Western Assay (pKAP1 in etoposide-treated MCF-7 cells)
Type: cell-based
MEASUREMENT_SETUP: MCF-7 cells, etoposide 100 μM, 1 hr, pKAP1 readout
Counter-ions that a name gives are not always drawn.
MEASURED_PROPERTY: IC50

Problem: Entry under review: CN(C)CCCOc1ncc(-c2ccc3ncc4c(c3c2)C2(CC(=O)C2)C(=O)N4C)cc1NS(C)(=O)=O . Reported IC50?
Result: 1 to 100 nM

Problem: Entry under review: CN(C)CCCOc1ncc(-c2ccc3ncc4c(c3c2)C2(CCC2)C(=O)N4C)cc1NS(=O)(=O)c1ccc(OC(F)(F)F)cc1 [Example 143, hydrochloride] . Reported IC50?
Result: 1 to 100 nM

Problem: Entry under review: CN(C)CCCOc1ncc(-c2ccc3ncc4c(c3c2)C2(CC2)C(=O)N4C)cc1C(N)=O . Reported IC50?
Result: > 100 nM

Problem: Entry under review: CN(C)CCCOc1ncc(-c2ccc3ncc4c(c3c2)C2(CCC2)C(=O)N4C)cc1NS(=O)(=O)c1ccc(C#N)nc1 [Example 147, hydrochloride] . Reported IC50?
Result: 1 to 100 nM

Problem: Entry under review: COc1ccc(S(=O)(=O)Nc2cc(-c3ccc4ncc5c(c4c3)C3(CC3)C(=O)N5C)cnc2OCCCN2CCCCC2)cc1 [Example 119, hydrochloride] . Reported IC50?
Result: 1 to 100 nM

Problem: Entry under review: CN(C)CCCOc1ncc(-c2ccc3ncc4c(c3c2)C2(CCC2)C(=O)N4C)cc1NS(=O)(=O)N1CCCC1 . Reported IC50?
Result: 1 to 100 nM

---

Exercise: for every item that follows, state its recorded pIC50.
TESTED_SYSTEM: DNA-PK (Homo sapiens (Human), UniProt P78527)
PROTOCOL_TEXT: DNA-PK Enzyme-Linked Immunosorbent Assay (phosphorylation of GST-p53 (1-101) peptide)
Assay type: biochemical
MEASUREMENT_SETUP: ELISA, ATP 20 μM
pIC50: −log10 of the molar value. Counter-ions that a name gives are not always drawn.

Problem: Return pIC50 measured with DNA-PK (Homo sapiens (Human), UniProt P78527) given this compound: CN1C(=O)C2(CCC2)c2c1cnc1ccc(-c3cnc(OCCCN4CCCCC4)c(NS(=O)(=O)C4CC4)c3)cc21 [Example 197, hydrochloride]
Result: 9.00 to 9.30

Problem: Return pIC50 measured with DNA-PK (Homo sapiens (Human), UniProt P78527) given this compound: CN(C)CCCOc1ncc(-c2ccc3ncc4c(c3c2)C2(CCC2)C(=O)N4C)cc1NS(=O)(=O)CCN [Example 223]
Result: > 9.30

Problem: Return pIC50 measured with DNA-PK (Homo sapiens (Human), UniProt P78527) given this compound: CCCS(=O)(=O)Nc1cc(-c2ccc3ncc4c(c3c2)C2(CC2)C(=O)N4C)cnc1OCCCN(C)C [Example 77]
Result: 7.00 to 9.00

Problem: Return pIC50 measured with DNA-PK (Homo sapiens (Human), UniProt P78527) given this compound: CN1C(=O)C2(CC2)c2c1cnc1ccc(-c3cnc(OCCC4CCCCN4C)c(NS(=O)(=O)c4ccccc4)c3)cc21 (centres unmarked) [Example 81]
Result: 7.00 to 9.00

Problem: Return pIC50 measured with DNA-PK (Homo sapiens (Human), UniProt P78527) given this compound: CCS(=O)(=O)Nc1cc(-c2cc3c4c(cnc3cc2F)N(C)C(=O)C42CCC2)cnc1N1CC(NC)C1 [Example 334]
Result: 9.00 to 9.30

Problem: Return pIC50 measured with DNA-PK (Homo sapiens (Human), UniProt P78527) given this compound: CN1C(=O)C2(CC2)c2c1cnc1cc(F)c(-c3cnc(OCCCN4CCCCC4)c(NS(=O)(=O)c4ccccc4)c3)cc21 [Example 118, hydrochloride]
Result: 7.00 to 9.00

Problem: Return pIC50 measured with DNA-PK (Homo sapiens (Human), UniProt P78527) given this compound: CN(C)CCCOc1ncc(-c2ccc3ncc4c(c3c2)C2(CCC2)C(=O)N4C)cc1NS(=O)(=O)c1cc(F)cc(F)c1 [Example 153]
Result: 9.00 to 9.30

Problem: Return pIC50 measured with DNA-PK (Homo sapiens (Human), UniProt P78527) given this compound: CN(C)CCCOc1ncc(-c2ccc3ncc4c(c3c2)C2(CC2)C(=O)N4C)cc1OCc1ccccc1 [Example 59]
Result: 7.00 to 9.00

Problem: Return pIC50 measured with DNA-PK (Homo sapiens (Human), UniProt P78527) given this compound: CN(C)CCCOc1ncc(-c2ccc3ncc4c(c3c2)C2(CC2)C(=O)N4C)cc1NS(=O)(=O)c1ccc(C(C)(C)C)cc1 [Example 127]
Result: 7.00 to 9.00

Problem: Return pIC50 measured with DNA-PK (Homo sapiens (Human), UniProt P78527) given this compound: CC(C)NCCOc1ncc(-c2ccc3ncc4c(c3c2)C2(CCC2)C(=O)N4C)cc1NS(C)(=O)=O [Example 281]
Result: 9.00 to 9.30

Problem: Return pIC50 measured with DNA-PK (Homo sapiens (Human), UniProt P78527) given this compound: CN(C)CCCOc1ncc(-c2ccc3ncc4c(c3c2)C2(CCC2)C(=O)N4C)cc1NS(=O)(=O)C1COC1 [Example 205]
Result: > 9.30

Problem: Return pIC50 measured with DNA-PK (Homo sapiens (Human), UniProt P78527) given this compound: CN(C)CCCOc1ncc(-c2ccc3ncc4c(c3c2)C2(CC2)C(=O)N4C)cc1NS(=O)(=O)N(C)C [Example 109]
Result: > 9.30

Problem: Return pIC50 measured with DNA-PK (Homo sapiens (Human), UniProt P78527) given this compound: CN1C(=O)C2(CCC2)c2c1cnc1ccc(-c3cnc(N4CCC(N5CCCCC5)CC4)c(NS(=O)(=O)N(C)C)c3)cc21 [Example 208]
Result: > 9.30

Problem: Return pIC50 measured with DNA-PK (Homo sapiens (Human), UniProt P78527) given this compound: CN(C)CCCOc1ncc(-c2ccc3ncc4c(c3c2F)C2(CCC2)C(=O)N4C)cc1NS(C)(=O)=O [Example 268]
Result: 7.00 to 9.00

Numbers sourced from patent US12187742B2.
